assay: Pharmacokinetic experiment in cannulated Sprague-Dawley rats (PO and IV); format: in vivo; settings: plasma, rat, PO 10 mg/kg vs IV 3 mg/kg, read-out: Oral bioavailability (F %)
measured_property: bioavailability (%)
Write the number in % without appending the unit.

Data request: May I ask what bioavailability has been recorded for CNC(=O)c1cccc(-c2cc(OC(=O)NC3CCCCC3)ccc2OC(F)F)c1 [Example 9] ?
Data returned: 53

Data request: May I ask what bioavailability has been recorded for NC(=O)c1cccc(-c2cc(OC(=O)NC3CCCCC3)ccc2OC(F)F)c1 [Example 8] ?
Data returned: 35

Data request: May I ask what bioavailability has been recorded for CNC(=O)c1cccc(-c2cccc(OC(=O)NC3CCCCC3)c2)c1 [[drawing 127] comparison compound, reference compound] ?
Data returned: 30

Data request: May I ask what bioavailability has been recorded for NS(=O)(=O)c1cccc(-c2cccc(OC(=O)NC3CCCCC3)c2)c1 [[drawing 129] comparison compound, reference compound] ?
Data returned: 21

Data request: May I ask what bioavailability has been recorded for NS(=O)(=O)c1cccc(-c2cc(OC(=O)NC3CCCCC3)ccc2F)c1 [Example 2] ?
Data returned: 35

Data request: May I ask what bioavailability has been recorded for NC(=O)c1cccc(-c2cccc(OC(=O)NC3CCCCC3)c2)c1 [[drawing 135] comparison compound, reference compound] ?
Data returned: 5

Data request: May I ask what bioavailability has been recorded for NC(=O)c1cccc(-c2cc(OC(=O)NC3CCC3)ccc2F)c1 [Example 3] ?
Data returned: 79

Data request: May I ask what bioavailability has been recorded for NC(=O)c1cccc(-c2cccc(OC(=O)NC3CCC3)c2)c1 [[drawing 131] comparison compound, reference compound] ?
Data returned: 39

Data request: May I ask what bioavailability has been recorded for CNC(=O)c1cccc(-c2cc(OC(=O)NC3CCCCC3)ccc2F)c1 [Example 1] ?
Data returned: 87
